# system: Autoinducer-2 kinase (Salmonella typhimurium (strain LT2 / SGSC1412 / ATCC 700720)) (UniProt Q8ZKQ6)
# protocolNotes: Inhibition of Salmonella typhimurium LsrK expressed in Escherichia coli MET1158 at 200 uM using (S)-DPD as substrate after 15 mins by Kinase Glo luminescence assay relative to control
# setupConditions: Salmonella enterica subsp. enterica serovar Typhimurium
Assign yes (1) to entries whose inhibition meets or exceeds 20%; assign no (0) to the rest.

Tell me whether inhibition is at least 20% here: Oc1ccc2cc(C3COC4(CCCCC4)O3)ncc2c1 (configuration not stated)
yes (1)

Further, for c1coc(-c2cc(C3COC4(CCCCC4)O3)[nH]n2)c1 (configuration not stated) ?
yes (1)

Further, for c1ccc2cc(C3COC4(CCCCC4)O3)ncc2c1 (configuration not stated) ?
no (0)

Further, for Cc1nc(-c2ccccc2)cc(C2COC3(CCCCC3)O2)n1 (configuration not stated) ?
no (0)

Further, for Cc1nc(C2CC2)cc(C2COC3(CCCCC3)O2)c1C(=O)O (configuration not stated) ?
no (0)

New cases:
Tell me whether inhibition is at least 20% here: OCC(O)c1cc(C2CC2)nc(-c2ccccc2)n1 (configuration not stated)
yes (1)

Further, for Cn1nc(-c2ccccc2)cc1C1COC2(CCOCC2)O1 (configuration not stated) ?
yes (1)

Further, for CCOC(=O)c1c(C2COC3(CCCCC3)O2)cc(C2CC2)nc1C (configuration not stated) ?
no (0)

----------
# system: Autoinducer-2 kinase (Salmonella typhimurium (strain LT2 / SGSC1412 / ATCC 700720))
# Sequence (whole entry): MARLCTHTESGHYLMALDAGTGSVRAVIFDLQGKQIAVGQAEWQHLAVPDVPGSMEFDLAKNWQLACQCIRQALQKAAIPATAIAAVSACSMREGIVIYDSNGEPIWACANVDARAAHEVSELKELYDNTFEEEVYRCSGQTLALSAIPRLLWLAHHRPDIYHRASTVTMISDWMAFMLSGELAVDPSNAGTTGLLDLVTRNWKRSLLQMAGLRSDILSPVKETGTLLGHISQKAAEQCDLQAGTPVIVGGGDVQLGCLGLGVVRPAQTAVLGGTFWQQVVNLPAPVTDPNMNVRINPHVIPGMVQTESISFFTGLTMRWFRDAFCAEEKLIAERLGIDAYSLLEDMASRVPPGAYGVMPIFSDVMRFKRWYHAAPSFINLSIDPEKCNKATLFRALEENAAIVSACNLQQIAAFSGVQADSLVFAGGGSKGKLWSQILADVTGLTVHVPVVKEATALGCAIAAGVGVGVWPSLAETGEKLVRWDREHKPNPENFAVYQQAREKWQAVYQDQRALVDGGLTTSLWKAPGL
# protocolNotes: Inhibition of Salmonella typhimurium LsrK expressed in Escherichia coli MET1158 at 200 uM using (S)-DPD as substrate after 15 mins by Kinase Glo luminescence assay relative to control
# setupConditions: Salmonella enterica subsp. enterica serovar Typhimurium
experimentalEndpoint: inhibition (%)
A number alone suffices; assume %.

Name the recorded inhibition for CC(C)c1cc(C(O)CO)n(C)n1 (stereo unspecified) .
0

Further, for Cc1nc(-c2ccccc2)cc(C(O)CO)n1 (stereo unspecified) ?
0.22

Further, for c1csc(-c2cc(C3COC4(CCCCC4)O3)[nH]n2)c1 (stereo unspecified) ?
26.5

New cases:
Name the recorded inhibition for Cn1nc(C2CCCC2)cc1C1COC2(CCCCC2)O1 (stereo unspecified) .
0

Further, for Cn1nc(-c2cccc(C#N)c2)cc1C1COC2(CCCCC2)O1 (stereo unspecified) ?
0

Further, for c1c(C23CC4CC(CC(C4)C2)C3)n[nH]c1C1COC2(CCCCC2)O1 (stereo unspecified) ?
0

Further, for CC(C)c1cc(C2COC3(CCCCC3)O2)[nH]n1 (stereo unspecified) ?
7.14

Further, for Cn1nc(-c2ccco2)cc1C1COC2(CCCCC2)O1 (stereo unspecified) ?
51.6

----------
# system: Autoinducer-2 kinase (Salmonella typhimurium (strain LT2 / SGSC1412 / ATCC 700720))
# Sequence (Q8ZKQ6 whole entry): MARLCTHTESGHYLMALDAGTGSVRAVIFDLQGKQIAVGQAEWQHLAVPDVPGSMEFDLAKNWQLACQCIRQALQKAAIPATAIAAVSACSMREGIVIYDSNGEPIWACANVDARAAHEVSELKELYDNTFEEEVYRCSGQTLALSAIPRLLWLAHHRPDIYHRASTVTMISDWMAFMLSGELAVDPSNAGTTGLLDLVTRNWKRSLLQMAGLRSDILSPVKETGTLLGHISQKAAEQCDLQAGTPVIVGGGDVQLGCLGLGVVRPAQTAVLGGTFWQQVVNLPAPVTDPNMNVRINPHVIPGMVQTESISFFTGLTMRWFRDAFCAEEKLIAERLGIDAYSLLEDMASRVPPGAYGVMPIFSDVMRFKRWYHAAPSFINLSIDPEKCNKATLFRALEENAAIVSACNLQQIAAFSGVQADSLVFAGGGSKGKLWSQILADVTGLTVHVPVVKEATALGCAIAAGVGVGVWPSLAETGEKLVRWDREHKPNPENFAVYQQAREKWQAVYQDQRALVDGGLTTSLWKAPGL
# protocolNotes: Inhibition of Salmonella typhimurium LsrK expressed in Escherichia coli MET1158 using (S)-DPD as substrate after 15 mins by Kinase Glo luminescence assay
experimentalEndpoint: IC50 (µM)
A number alone suffices; assume µM.

Name the recorded IC50 for Cn1nc(-c2ccccc2)cc1C1COC2(CCCCC2)O1 (centres undefined) .
119

Further, for c1ccc(-c2cc(C3COC4(CCCCC4)O3)[nH]n2)cc1 (centres undefined) ?
475

Further, for Cn1nc(-c2ccco2)cc1C1COC2(CCCCC2)O1 (centres undefined) ?
284

We next turn to a different molecule, shown below.
Name the recorded IC50 for c1coc(-c2cc(C3COC4(CCCCC4)O3)[nH]n2)c1 (centres undefined) .
384

----------
# system: Autoinducer-2 kinase (Salmonella typhimurium (strain LT2 / SGSC1412 / ATCC 700720)) (UniProt Q8ZKQ6)
# protocolNotes: Inhibition of Salmonella typhimurium LsrK expressed in Escherichia coli MET1158 at 200 uM using (S)-DPD as substrate after 15 mins by Kinase Glo luminescence assay relative to control
# setupConditions: Salmonella enterica subsp. enterica serovar Typhimurium
experimentalEndpoint: inhibition (%)
A number alone suffices; assume %.

# annotated cases, reported inhibition shown
Name the recorded inhibition for Cn1nc(-c2cccs2)cc1C(O)CO (stereo unspecified) .
0

Further, for Cc1ccc2cnc(C3COC4(CCCCC4)O3)cc2c1 (stereo unspecified) ?
1.66

Further, for Cc1nc2cc(C3COC4(CCCCC4)O3)ncc2s1 (stereo unspecified) ?
6.32

Further, for Cc1nc(C2CC2)cc(C(O)CO)c1C(=O)O (stereo unspecified) ?
1.33

Further, for Cc1nc2cnc(C(O)CO)cc2s1 (stereo unspecified) ?
0.1

Further, for Cn1nc(-c2ccccc2)cc1C(O)CO (stereo unspecified) ?
0

New cases:
Name the recorded inhibition for Cn1nc(C2CCCC2)cc1C(O)CO (stereo unspecified) .
0

----------
# system: Autoinducer-2 kinase (Salmonella typhimurium (strain LT2 / SGSC1412 / ATCC 700720)) (UniProt Q8ZKQ6)
# protocolNotes: Inhibition of Salmonella typhimurium LsrK expressed in Escherichia coli MET1158 at 200 uM using (S)-DPD as substrate after 15 mins by Kinase Glo luminescence assay relative to control
# setupConditions: Salmonella enterica subsp. enterica serovar Typhimurium
inhibition values, listed per item
A number alone suffices; assume %.

# annotated cases, reported inhibition shown
Name the recorded inhibition for OCC(O)c1cc(C2CC2)nc(-c2ccccn2)n1 (centres undefined) .
2.94

Further, for c1ccc(-c2cc(C3COC4(CCCCC4)O3)nc(C3CC3)n2)cc1 (centres undefined) ?
15.2

Further, for Cn1nc(-c2cccnc2)cc1C1COC2(CCCCC2)O1 (centres undefined) ?
4.92

New cases:
Name the recorded inhibition for OCC(O)c1cc(C23CC4CC(CC(C4)C2)C3)n[nH]1 (centres undefined) .
0

----------
# system: Autoinducer-2 kinase (Salmonella typhimurium (strain LT2 / SGSC1412 / ATCC 700720))
# protocolNotes: Inhibition of Salmonella typhimurium LsrK expressed in Escherichia coli MET1158 at 200 uM using (S)-DPD as substrate after 15 mins by Kinase Glo luminescence assay relative to control
# setupConditions: Salmonella enterica subsp. enterica serovar Typhimurium
experimentalEndpoint: inhibition (%)
A number alone suffices; assume %.

Name the recorded inhibition for CCCc1nc(-c2cccs2)cc(C2COC3(CCCCC3)O2)n1 (stereo not drawn) .
0.96

Further, for OCC(O)c1cc2ccc(O)cc2cn1 (stereo not drawn) ?
1.67

Further, for Cn1nc(-c2ccco2)cc1C(O)CO (stereo not drawn) ?
0

Further, for c1ccc(-c2nc(C3CC3)cc(C3COC4(CCCCC4)O3)n2)cc1 (stereo not drawn) ?
0.76

Further, for N#CCCn1nc(-c2ccccc2)cc1C1COC2(CCCCC2)O1 (stereo not drawn) ?
0

Further, for Cc1nc(-c2ccccc2)cc(C(O)CO)c1C(=O)O (stereo not drawn) ?
0.81

Further, for Cn1nc(-c2ccon2)cc1C1COC2(CCCCC2)O1 (stereo not drawn) ?
9.83

Further, for Cn1nc(-c2cc3ccccc3[nH]2)cc1C1COC2(CCCCC2)O1 (stereo not drawn) ?
4.38

We next turn to a different compound, shown below.
Name the recorded inhibition for Cn1nc(C23CC4CC(CC(C4)C2)C3)cc1C(O)CO (stereo not drawn) .
0
